# Test system: COLO 205 colon
# procedure-text: NCI tumour cell line growth inhibition, 48 h
measured-attribute: TGI (µM)
Field format: number, assumed µM, no unit text.

molecule	experimental-target	reading
CC1=CCC([C@@](C)(O)CCCC(C)(C)N=C=S)CC1 (stereo not given in full)	COLO 205 colon	30.2

Pending molecule:
May I ask what TGI has been recorded for COc1cc(O)c2c(c1)C(=O)c1cc3c(c(O)c1C2=O)C(OC1OC(C)C(OC)C(O)C1OC)C(OC)C(C)(O)C3=O (stereo not given) ?
13.3

* * *

# System: HL-60(TB) leukemia
# procedure-text: NCI tumour cell line growth inhibition, 48 h
log10 TGI values, listed per item
In our notation, the value equals log10 of TGI in µM.

compound	experimental-target	measured-attribute	reading
C=CCCCCC1CCC2CCC(CCCCC=C)N12 (centres undefined)	HL-60(TB) leukemia	log10 TGI	1.56
CN1CCC(=O)/C(=C/c2ccccc2)C1	HL-60(TB) leukemia	log10 TGI	1.62
COc1ccc(C(=O)Nc2ccc(O)c(=O)cc2)cc1	HL-60(TB) leukemia	log10 TGI	1.74
Cc1ccc(C2=CC(=O)OC(C[P+](c3ccccc3)(c3ccccc3)c3ccccc3)(c3ccccc3)O2)cc1 (centres undefined)	HL-60(TB) leukemia	log10 TGI	1.67
CC(NCCC(c1ccccc1)c1ccccc1)c1ccccc1 (centres undefined)	HL-60(TB) leukemia	log10 TGI	0.62
COC1=CC(=O)c2c(c(-c3nc(C)cs3)cn2C)C1=O	HL-60(TB) leukemia	log10 TGI	0.97

Value lookup for log10 TGI; key = C[n+]1c(/C=C/c2c(O)ccc3ccccc23)ccc2ccccc21
1.13

I'd like to know its log10 TGI. The compound in question is O=C(/C=C/c1ccc[nH]1)c1ccc(-n2ccc(C(F)(F)F)n2)cc1
0.61

Which log10 TGI reading was recorded for the compound NC(=O)c1c(NC(=O)c2ccccc2)sc2c1CCC(=O)C2 ?
0.55

# get_value(readout='log10 TGI', item= Cc1nc(Nc2ccc(Cl)cc2)sc1C(=O)NNC(=S)NN )
1.70

* * *

# System: SNB-75 CNS
# procedure-text: NCI tumour cell line growth inhibition, 48 h
measured-attribute: TGI (µM)
Kindly answer with a numeric value in µM, unit omitted.

molecule	measured-attribute	reading
CC(=O)ON1CCCC(P(=O)(OCCSC(=O)C(C)(C)C)OCCSC(=O)C(C)(C)C)C1=O (stereo not given)	TGI	23.3
OC[C@H]1O[C@@H]2O[C@@](COCc3ccccc3)([C@H](OCc3ccccc3)[C@H]2O)[C@@H]1OCc1ccccc1	TGI	29.7
CCC[CH2][Sn]([CH2]CCC)([O]C(=O)c1ccc(OC)c(OC)c1OC)[O][Sn]([CH2]CCC)([CH2]CCC)[O]C(=O)c1ccc(OC)c(OC)c1OC	TGI	0.744
C=CCCCCC1CCC2CCC(CCCCC=C)N12 (stereo not given)	TGI	43.1

For S=c1c2cn[nH]c2nc2scc(-c3ccc(Cl)cc3)n12 , what is its reported TGI?
28.2

* * *

# Tested on: KM20L2 colon
# procedure-text: NCI tumour cell line growth inhibition, 48 h
measured-attribute: TGI (µM)
Your answer should be a plain number; it is taken to be in µM.

compound	experimental-target	unit-of-measurement	TGI
CN1CCC(=O)/C(=C/c2ccccc2)C1	KM20L2 colon	µM	26.6

Please provide the recorded TGI for Cc1nc(Nc2ccc(Cl)cc2)sc1C(=O)NNC(=S)NN , tested on KM20L2 colon.
32.5

API: value(readout= TGI, system= KM20L2 colon, query= C/C(CC(=O)Nc1ccc(C)c(C)c1)=N\N(c1ccccc1)c1ccccc1 )
26

* * *

The reader will find reported GI50 values listed item by item below.
# System: SK-MEL-5 melanoma
# procedure-text: NCI tumour cell line growth inhibition, 48 h

For orientation, consider the following solved cases.
molecule	measured-attribute	reading
COC(=O)[C@]12CC[C@@H](C)[C@H](C)[C@@H]1C1=CC[C@@H]3[C@@]4(C)C[C@@H](O)[C@H](O)[C@@](C)(CO)C4=CC[C@@]3(C)[C@]1(C)CC2	GI50	12.8 µM
CCN1CCN(c2cc(C)c3cc(NC(=O)c4ccc(OC)c(OC)c4)ccc3n2)CC1	GI50	1.17 µM
N=c1c2c(-c3ccccc3)c(-c3ccccc3)n(Cc3ccccc3)c2ncn1C1CCC(O)CC1 (stereo unspecified)	GI50	0.511 µM
C[C@@H]1C[C@@H]([C@@H](CC2CC(=O)NC(=O)C2)OC(=O)CC(=O)c2ccccc2)C(=O)[C@@H](C)C1	GI50	0.661 µM

What measured GI50 goes with CCC[CH2][Sn]([CH2]CCC)([O]C(=O)c1ccc(OC)c(OC)c1OC)[O][Sn]([CH2]CCC)([CH2]CCC)[O]C(=O)c1ccc(OC)c(OC)c1OC ?
0.604 µM

Need GI50, item C[n+]1c(/C=C/c2c(O)ccc3ccccc23)ccc2ccccc21
4.82 µM

What value of GI50 has been recorded for this entry: O=c1oc2ccc(-c3ccc(F)cc3F)cc2c(=O)n1-c1cccc(C(F)(F)F)c1
0.44 µM

Endpoint output: GI50 of COc1cc(N(CCC#N)CCC#N)ccc1/C(N=Nc1ccc(Cl)cc1)=N/NC(=O)c1cc(Br)ccc1O . Value?
82 mg/L

// lookup GI50 for O=C(c1ccco1)c1c(C(F)(F)F)nc2ccc(Cl)cc2[n+]1[O-]
17.5 µM

Which measured GI50 value corresponds to Nc1ncn([C@@H]2O[C@H](CO)[C@@H](O)[C@H]2O)c(=O)n1 ?
2.15 µM

Can you look up the measured GI50 of Clc1cc2c(c(CSc3nc4ccccc4n4cccc34)c1)OCOC2 for me?
> 100 µM

* * *

Recorded TGI, one value per entry.
# System: HOP-18 NSCLC
# procedure-text: NCI tumour cell line growth inhibition, 48 h

Here are 4 molecules together with their reported answers.
molecule	experimental-target	TGI
COC(=O)/C(=N\NC(N)=S)C(C(=O)OC)C(=O)C(=O)Nc1ccc(C)cc1 (stereo unspecified)	HOP-18 NSCLC	> 100 µM
N#C/C(=C\c1ccc2ccccc2c1)C(=O)c1ccccc1	HOP-18 NSCLC	> 100 µM
O=C(O)C(Cl)(Cl)Cl	HOP-18 NSCLC	> 100 µM
COC1C(OC(=S)Nc2ccccc2)c2ccccc2N1C(C)=O (stereo unspecified)	HOP-18 NSCLC	> 100 µM

Kindly state the measured TGI obtained for COc1ccc(CCN(C)C2CCC(C#N)(c3ccc(OC)c(OC)c3)CC2)cc1OC (stereo unspecified) with HOP-18 NSCLC.
> 100 µM

Value wanted: TGI (HOP-18 NSCLC) of entry Cc1nc(Nc2ccc(Cl)cc2)sc1C(=O)NNC(=S)NN
33.5 µM

Return TGI measured with HOP-18 NSCLC given this molecule: O=C(/C(=C/c1ccc(Cl)cc1)c1ccccc1)c1ccccc1
62.3 µM

Record CC12CCC(=O)C[C@H]1CCC(OC=O)C2Br (stereo partly specified) : what is its TGI with HOP-18 NSCLC?
> 100 µM

What TGI appears in the records for this molecule with HOP-18 NSCLC? On1c(-c2ccccc2)c(-c2ccccc2N2CCCC2)c2ccccc21
> 100 µM

Missing value: TGI, HOP-18 NSCLC, entry N#CC(C(=O)/C(=N\NC(N)=O)C(C#N)c1ccc(Cl)cc1)c1ccc(Cl)cc1 (stereo unspecified) . Fill in?
> 100 µM

Enter reported TGI observed with HOP-18 NSCLC for O=C1CCC2(c3ccc(Cl)cc3)Nc3cc(Cl)ccc3N12 (stereo unspecified)
14.6 µM

* * *

# Tested on: T-47D breast
# procedure-text: NCI tumour cell line growth inhibition, 48 h; in the data active means GI50 below about 0.43 µM; inactive means the rest
Please reply with one of these outcomes: active, inactive

Hi, sorry to bother you, what did the test record for CN(C)CC[C@H](CSc1ccccc1)Nc1ccc(S(=O)(=O)NC(=O)c2ccc(N3CCN(Cc4ccccc4-c4ccc(Cl)cc4)CC3)cc2)cc1[N+](=O)[O-] ?
inactive

* * *

# Test system: UACC-257 melanoma
# procedure-text: NCI tumour cell line growth inhibition, 48 h
Catalogue of TGI values
Kindly answer with a numeric value in µM, unit omitted.

smiles-str	measured-attribute	unit-of-measurement	reading
CCCCCCCCCCCC[S+](C)C	TGI	µM	17.4

If you can, please state the reported TGI value of Cc1nc(Nc2ccc(Cl)cc2)sc1C(=O)NNC(=S)NN .
27.3

Query: TGI; subject: N#CC(C#N)=C1SC(=Nc2ccccc2)C(=Nc2ccccc2)N1c1ccccc1
30

Data request, read-out TGI, for O=c1oc2ccc(-c3ccc(F)cc3F)cc2c(=O)n1-c1cccc(C(F)(F)F)c1
3.31

* * *

# Tested on: OVCAR-5 ovarian
# procedure-text: NCI tumour cell line growth inhibition, 48 h
Recorded GI50 for the following compounds

Answered examples (3):
compound	measured-attribute	reading
Cc1nnc(Nc2ccc(NC(=O)Nc3ccc(Cl)cc3)cc2)c2ccccc12	GI50	2.1 µM
O=c1c(F)cn(Cc2ccc(C34CC5CC(CC(C5)C3)C4)c(O)c2)c(=O)n1Cc1ccc(C23CC4CC(CC(C4)C2)C3)c(O)c1	GI50	13.5 µM
O=C(Nc1ccc(Br)cc1F)c1cc(Cl)ccc1O	GI50	3.67 µM

Shifting focus to the compound that follows.
# lookup: GI50 of CC(=O)ON1CCCC(P(=O)(OCCSC(=O)C(C)(C)C)OCCSC(=O)C(C)(C)C)C1=O (stereo unspecified)
6.46 µM

Data origin, for the record: PubChem BioAssay (NCI)
